Where do these numbers come from? They come from ChEMBL document CHEMBL1140877.

- assaySystem: Heat shock protein HSP90 (Homo sapiens, UniProt P07900+P08238)
- assayInfo: Inhibition of Hsp90 in human SKBR3 cells assessed as down-regulation of Her2 protein by ELISA
- Assay type: cell-based
- cond: sk-br-3
Items are presented alongside their recorded log10(IC50).
All values: log10 IC50 [nM].

These recorded examples may help you get a feel for the data.
querySmiles	log10(IC50)
COc1cccc(C2=C(NC(C)=O)C(=O)c3ccccc3C2=O)c1	3.68
CC(=O)NC1=C(c2ccc(Cl)cc2)C(=O)c2ccccc2C1=O	3.72
COc1ccccc1C1=C(NC(C)=O)C(=O)c2ccccc2C1=O	3.40

Please look at COc1ccccc1C1=C(NC(=O)c2ccccc2)C(=O)c2ccccc2C1=O and tell me its recorded log10(IC50) on Heat shock protein HSP90 (Homo sapiens, UniProt P07900+P08238). 3.48

Please look at CC(=O)NC1=C(c2ccccc2Cl)C(=O)c2ccccc2C1=O and tell me its recorded log10(IC50) on Heat shock protein HSP90 (Homo sapiens, UniProt P07900+P08238). 3.36
